- experiment-summary: In vivo pharmacokinetics in Sprague-Dawley rats
- cond: male, rat, brain, ip, 10 mg/kg

compound | CL/F
O=C(NCCc1cccc(Cl)c1)Nc1ccc(Cl)cc1 [Compound 31] | 121 mL/min/kg

Cited source: paper PMC8969894
